Experiment: Quantitative highthroughput screen to assess conditional lethalithy of SEM cells grown in RPMI1640 with dialyzed fetal bovine serum (RPMI+ds) (AID 1963884); further: nearly all actives have a fitted effect of over 35% in size
Study Conditions: SEM B-ALL cells, RPMI+dialyzed FBS, CellTiter-Glo viability, 48 h; series mostly up to 45.8 µM
Results filed as inconclusive are left out. The source made the active and inactive calls. The call rests on the fitted dose curve; in most records, active means well fitted cell-killing curve with a large enough effect; inconclusive means small, poorly fitted or top-dose-only effect, or effect the other way; inactive means no such curve, though single readings can be large or run the other way.
In this exercise, the only acceptable responses are active, inactive

molecule="CS(=O)c1ccc(-c2nc(-c3ccc(F)cc3)c(-c3ccncc3)[nH]2)cc1 (stereo not drawn)" classification=active
molecule="CC1CNc2c(cccc2S(=O)(=O)N[C@@H](CCCN=C(N)N)C(=O)N2CC[C@@H](C)C[C@@H]2C(=O)O)C1 (stereo partly drawn)" classification=inactive
molecule=COc1cc2nc(N3CCN(C(=O)c4ccco4)CC3)nc(N)c2cc1OC classification=active
molecule=O=C1c2c(O)cc(O)cc2O[C@H](c2cc(O)c(O)c(O)c2)[C@H]1O classification=active
molecule=CC(=O)NCC(=O)N1[C@H]2CC[C@H]1c1cc(Nc3ncc(C(F)(F)F)c(NC4CCC4)n3)ccc12 classification=active
molecule=CC(C)C[C@H](NC(=O)[C@H](CCc1ccccc1)NC(=O)CN1CCOCC1)C(=O)N[C@@H](Cc1ccccc1)C(=O)N[C@@H](CC(C)C)C(=O)[C@@]1(C)CO1 classification=active
molecule=COc1ccccc1-c1cccc(-c2c(O)c3cc(C#N)c(Cl)cc3[nH]c2=O)c1 classification=active

### Prompt GET /call?item= CNC(=O)c1nn(C)c2c1C(C)(C)Cc1cnc(Nc3ccc(N4CCN(C)CC4)cc3)nc1-2 returns the recorded outcome of this test.
### Response active
